- assayedSystem: PAK6 (Homo sapiens (Human), UniProt Q9NQU5)
- Sequence (Q9NQU5 whole entry): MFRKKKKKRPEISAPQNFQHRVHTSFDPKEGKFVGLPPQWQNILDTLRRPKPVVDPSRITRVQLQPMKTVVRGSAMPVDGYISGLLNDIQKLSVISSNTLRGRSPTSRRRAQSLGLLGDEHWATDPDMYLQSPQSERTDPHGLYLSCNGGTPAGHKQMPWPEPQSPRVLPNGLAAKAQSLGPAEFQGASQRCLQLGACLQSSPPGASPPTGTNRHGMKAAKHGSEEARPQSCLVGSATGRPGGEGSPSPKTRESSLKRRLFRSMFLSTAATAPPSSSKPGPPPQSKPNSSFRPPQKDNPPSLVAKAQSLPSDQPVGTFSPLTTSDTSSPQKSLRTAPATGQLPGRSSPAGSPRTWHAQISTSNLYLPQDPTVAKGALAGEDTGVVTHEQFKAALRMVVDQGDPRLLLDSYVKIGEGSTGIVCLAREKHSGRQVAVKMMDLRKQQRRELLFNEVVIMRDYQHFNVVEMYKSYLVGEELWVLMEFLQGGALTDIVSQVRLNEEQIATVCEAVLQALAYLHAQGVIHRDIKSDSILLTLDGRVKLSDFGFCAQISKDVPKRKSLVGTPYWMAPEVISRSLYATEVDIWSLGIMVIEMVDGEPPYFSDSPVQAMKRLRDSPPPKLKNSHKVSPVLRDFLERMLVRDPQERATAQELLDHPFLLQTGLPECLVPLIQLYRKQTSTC
- testDetails: KinaseProfiler off-target kinase profiling
- Format: biochemical
- conditionParameters: 10 μM, ATP near Km
testReadout: Avg. POC (POC)
Give bare numbers, in POC.

Examples from the recorded data:
> print(dat)
                                   molecule  testreadout  observedresult
1  COCc1ccc2c(c1)C(NC(=O)Nc1c(C)c(-c3cnn(C)c3)nn1-c1ccccc1)COC2 (stereo not shown)     Avg. POC           116.5
2  Cc1c(-c2cnn(C)c2)nn(-c2ccccc2)c1NC(=O)N[C@H]1CCCc2ccccc21     Avg. POC           119.5
3  Cc1c(-c2cnn(C)c2)nn(-c2ccccc2)c1NC(=O)NC1CCOc2cc(F)ccc21 (stereo not shown)     Avg. POC             139

Shift focus to the following entry.
Look at this molecule and give its reported Avg. POC. Cc1c(-c2ccc(=O)n(C)c2)nn(-c2ccccc2)c1NC(=O)NC1CN(CC(F)(F)F)Cc2ccccc21 (stereo not shown)
116.5

###

- assayedSystem: AMPK(A1/B1/G1) (Homo sapiens (Human), UniProt Q13131)
- Sequence (Q13131 whole entry): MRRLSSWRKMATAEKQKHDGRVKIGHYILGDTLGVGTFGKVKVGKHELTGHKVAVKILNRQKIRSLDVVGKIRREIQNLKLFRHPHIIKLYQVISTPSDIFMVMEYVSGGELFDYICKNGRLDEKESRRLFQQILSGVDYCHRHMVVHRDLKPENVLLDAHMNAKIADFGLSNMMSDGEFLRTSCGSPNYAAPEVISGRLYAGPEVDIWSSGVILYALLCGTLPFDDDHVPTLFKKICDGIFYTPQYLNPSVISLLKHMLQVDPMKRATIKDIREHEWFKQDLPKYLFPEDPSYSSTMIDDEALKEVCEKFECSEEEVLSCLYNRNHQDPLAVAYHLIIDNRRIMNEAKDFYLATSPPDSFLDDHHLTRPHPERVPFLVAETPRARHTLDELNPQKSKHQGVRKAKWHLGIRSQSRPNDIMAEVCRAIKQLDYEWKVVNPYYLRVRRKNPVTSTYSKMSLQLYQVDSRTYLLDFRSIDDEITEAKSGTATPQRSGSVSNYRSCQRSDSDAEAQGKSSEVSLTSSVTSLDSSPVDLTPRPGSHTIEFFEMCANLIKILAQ
- Sequence (Q9Y478 whole entry partner): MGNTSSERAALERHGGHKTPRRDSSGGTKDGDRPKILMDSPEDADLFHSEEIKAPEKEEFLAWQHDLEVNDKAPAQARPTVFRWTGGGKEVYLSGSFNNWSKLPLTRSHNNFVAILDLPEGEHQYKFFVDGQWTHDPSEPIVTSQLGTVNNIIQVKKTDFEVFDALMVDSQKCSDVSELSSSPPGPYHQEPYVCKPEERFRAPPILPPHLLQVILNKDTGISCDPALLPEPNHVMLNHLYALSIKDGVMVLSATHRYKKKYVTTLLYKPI
- Sequence (P54619 whole entry partner): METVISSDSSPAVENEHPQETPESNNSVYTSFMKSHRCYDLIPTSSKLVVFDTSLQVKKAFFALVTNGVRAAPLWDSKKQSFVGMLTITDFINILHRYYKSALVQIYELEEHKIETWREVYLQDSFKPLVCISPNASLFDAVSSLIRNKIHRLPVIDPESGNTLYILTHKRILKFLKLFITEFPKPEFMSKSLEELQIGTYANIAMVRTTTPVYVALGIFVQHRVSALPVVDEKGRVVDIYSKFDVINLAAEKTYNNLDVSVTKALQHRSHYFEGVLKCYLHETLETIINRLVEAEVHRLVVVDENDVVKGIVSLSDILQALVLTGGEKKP
- testDetails: KinaseProfiler off-target kinase profiling
- Type: biochemical
- conditionParameters: 10 μM, ATP near Km
testReadout: Avg. POC

Examples from the recorded data:
> print(dat)
                                   compound  testreadout  observedresult
1  Cc1c(-c2cnn(C)c2)nn(-c2ccccc2)c1NC(=O)NC1CCOc2cc(F)ccc21 (stereo not shown)     Avg. POC         117 POC
2  COCc1ccc2c(c1)C(NC(=O)Nc1c(C)c(-c3cnn(C)c3)nn1-c1ccccc1)COC2 (stereo not shown)     Avg. POC       138.5 POC
3  Cc1c(-c2cnn(C)c2)nn(-c2ccccc2)c1NC(=O)N[C@H]1CCCc2ccccc21     Avg. POC       152.5 POC

Shift focus to the following entry.
Query Avg. POC on AMPK(A1/B1/G1) (Homo sapiens (Human), UniProt Q13131) for Cc1c(-c2ccc(=O)n(C)c2)nn(-c2ccccc2)c1NC(=O)NC1CN(CC(F)(F)F)Cc2ccccc21 (stereo not shown)
122.5 POC

###

Would you kindly list Avg. POC for each of these molecules?
- assayedSystem: IKKbeta (Homo sapiens (Human))
- Sequence (O14920 whole entry): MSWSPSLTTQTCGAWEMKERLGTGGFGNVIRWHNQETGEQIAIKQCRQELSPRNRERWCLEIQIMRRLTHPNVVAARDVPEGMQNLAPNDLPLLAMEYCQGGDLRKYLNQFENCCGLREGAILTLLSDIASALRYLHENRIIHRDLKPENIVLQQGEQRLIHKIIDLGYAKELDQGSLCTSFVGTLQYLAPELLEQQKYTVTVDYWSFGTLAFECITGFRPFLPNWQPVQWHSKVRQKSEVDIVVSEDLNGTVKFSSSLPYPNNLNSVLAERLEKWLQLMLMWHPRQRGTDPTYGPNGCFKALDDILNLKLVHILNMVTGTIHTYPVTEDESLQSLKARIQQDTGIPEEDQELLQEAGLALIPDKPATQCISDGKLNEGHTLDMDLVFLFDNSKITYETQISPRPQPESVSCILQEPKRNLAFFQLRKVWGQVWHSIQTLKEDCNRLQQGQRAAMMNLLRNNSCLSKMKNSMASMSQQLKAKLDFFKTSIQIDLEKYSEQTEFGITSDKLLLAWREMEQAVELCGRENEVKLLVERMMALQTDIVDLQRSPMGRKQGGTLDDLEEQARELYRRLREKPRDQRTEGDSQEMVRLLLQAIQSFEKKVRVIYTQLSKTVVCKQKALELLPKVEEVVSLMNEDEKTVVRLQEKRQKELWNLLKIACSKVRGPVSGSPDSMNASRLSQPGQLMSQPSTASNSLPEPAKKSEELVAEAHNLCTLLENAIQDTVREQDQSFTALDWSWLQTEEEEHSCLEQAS
- testDetails: KinaseProfiler off-target kinase profiling
- Format: biochemical
- conditionParameters: 10 μM, ATP near Km
Numbers only, in POC.

Quick request: Avg. POC for each listed item, please.
1. COCc1ccc2c(c1)C(NC(=O)Nc1c(C)c(-c3cnn(C)c3)nn1-c1ccccc1)COC2 (stereo not shown)
2. Cc1c(-c2cnn(C)c2)nn(-c2ccccc2)c1NC(=O)NC1CCOc2cc(F)ccc21 (stereo not shown)

1: 105.5; 2: 102

Quick request: Avg. POC for each listed item, please.
1. Cc1c(-c2cnn(C)c2)nn(-c2ccccc2)c1NC(=O)N[C@H]1CCCc2ccccc21
2. Cc1c(-c2ccc(=O)n(C)c2)nn(-c2ccccc2)c1NC(=O)NC1CN(CC(F)(F)F)Cc2ccccc21 (stereo not shown)

[116, 103.5]

###

- assayedSystem: Ron (Homo sapiens (Human), UniProt Q04912)
- Sequence (Q04912 25-1400): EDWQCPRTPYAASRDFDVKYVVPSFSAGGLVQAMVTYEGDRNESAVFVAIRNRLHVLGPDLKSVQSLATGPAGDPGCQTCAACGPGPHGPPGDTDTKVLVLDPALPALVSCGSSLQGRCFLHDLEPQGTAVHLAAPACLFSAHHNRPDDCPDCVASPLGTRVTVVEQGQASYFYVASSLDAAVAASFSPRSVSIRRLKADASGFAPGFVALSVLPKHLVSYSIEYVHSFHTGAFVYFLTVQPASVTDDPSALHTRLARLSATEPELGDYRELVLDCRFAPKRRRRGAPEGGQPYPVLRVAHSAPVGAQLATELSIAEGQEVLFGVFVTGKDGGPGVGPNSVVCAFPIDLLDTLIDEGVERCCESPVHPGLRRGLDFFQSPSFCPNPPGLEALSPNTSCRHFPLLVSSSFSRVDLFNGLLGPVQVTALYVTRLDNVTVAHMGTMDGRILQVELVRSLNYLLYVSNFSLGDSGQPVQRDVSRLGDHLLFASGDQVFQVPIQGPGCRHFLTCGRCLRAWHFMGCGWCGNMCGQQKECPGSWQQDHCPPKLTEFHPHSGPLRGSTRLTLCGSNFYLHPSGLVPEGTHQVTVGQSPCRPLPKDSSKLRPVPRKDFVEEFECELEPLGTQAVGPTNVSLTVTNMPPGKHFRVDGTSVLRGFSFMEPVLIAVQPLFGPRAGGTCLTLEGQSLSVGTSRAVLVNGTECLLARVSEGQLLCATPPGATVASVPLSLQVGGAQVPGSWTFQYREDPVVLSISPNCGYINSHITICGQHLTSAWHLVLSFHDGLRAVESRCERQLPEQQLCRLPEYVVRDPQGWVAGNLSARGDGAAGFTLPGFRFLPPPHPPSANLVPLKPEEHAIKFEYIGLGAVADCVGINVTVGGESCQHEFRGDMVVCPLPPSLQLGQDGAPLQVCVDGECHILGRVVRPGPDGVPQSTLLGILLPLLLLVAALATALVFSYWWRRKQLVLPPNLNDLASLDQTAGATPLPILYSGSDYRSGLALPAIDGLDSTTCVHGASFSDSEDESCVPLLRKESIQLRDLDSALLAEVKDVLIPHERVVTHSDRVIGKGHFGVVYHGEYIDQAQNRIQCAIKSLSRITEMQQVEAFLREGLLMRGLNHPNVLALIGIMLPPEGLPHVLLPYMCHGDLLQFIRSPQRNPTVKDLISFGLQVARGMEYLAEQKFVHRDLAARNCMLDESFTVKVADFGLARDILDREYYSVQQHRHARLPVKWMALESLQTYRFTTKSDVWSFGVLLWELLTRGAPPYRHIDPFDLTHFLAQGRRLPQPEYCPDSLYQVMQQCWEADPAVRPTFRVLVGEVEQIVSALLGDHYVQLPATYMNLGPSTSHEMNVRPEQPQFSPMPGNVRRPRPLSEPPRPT
- testDetails: KinaseProfiler off-target kinase profiling
- Format: biochemical
- conditionParameters: 10 μM, ATP near Km
testReadout: Avg. POC (POC)
Answers are plain numbers, in POC.

Examples from the recorded data:
> print(dat)
                                   molecule                             assayedsystem  unitdescriptor  observedresult
1  Cc1c(-c2cnn(C)c2)nn(-c2ccccc2)c1NC(=O)NC1CCOc2cc(F)ccc21 (stereo not shown)  Ron (Homo sapiens (Human), UniProt Q04912)             POC           116.5
2  Cc1c(-c2ccc(=O)n(C)c2)nn(-c2ccccc2)c1NC(=O)NC1CN(CC(F)(F)F)Cc2ccccc21 (stereo not shown)  Ron (Homo sapiens (Human), UniProt Q04912)             POC             101
3  COCc1ccc2c(c1)C(NC(=O)Nc1c(C)c(-c3cnn(C)c3)nn1-c1ccccc1)COC2 (stereo not shown)  Ron (Homo sapiens (Human), UniProt Q04912)             POC             107

Look at this molecule and give its reported Avg. POC. Cc1c(-c2cnn(C)c2)nn(-c2ccccc2)c1NC(=O)N[C@H]1CCCc2ccccc21
106.5
